B1: EHEE_rd3_0053 (parent)
chain: TYTFKVDNKDQAKKAAKWAKKLGLSFQIEKHGDTFKITVQ

# Variants of: B1
# TEST_DETAILS: folding stability dG (cDNA display proteolysis); higher = more stable
# CONDITION_SET: PBS, room temperature
QUANTITY_MEASURED: folding stability dG (kcal/mol)
Express your answer in kcal/mol, writing the number without its unit.

| SEQUENCE_CHANGE | QUANTITY_MEASURED | QUANTITATIVE_RESULT |
| --- | --- | --- |
| V39H | folding stability dG | -0.097 |
| Q11P | folding stability dG | 0.025 |
| Q27T | folding stability dG | 2.71 |

INPUT: Need folding stability dG, item "K13H"
OUTPUT: 2.07

INPUT: Try "E29A" next.
OUTPUT: 2.06
